- experiment-notes: comparison of the therapeutic range
- condition-info: rat, in vivo
recorded-endpoint: selectivity ratio

CSCCC(=O)SC [A, S-methyl 3-methylthiopropionothioate]; 52.9

###

- experiment-notes: stomach ulcer (ulcerogenic action) in rats
- condition-info: rat, in vivo, im
recorded-endpoint: TD50

CSCCC(=O)SC [A, S-methyl 3-methylthiopropionothioate]; 256 µmol/kg

###

- System: paw oedemas, caused by the administration of kaolin
- experiment-notes: kaolin paw oedema, antiphlogistic action in rats
- Assay type: in vivo
- condition-info: Rattus norvegicus, im; rats, intramuscularly, n = 10/dose group; read-out: ED50 (kaolin oedema)
// values below are reported ED50
recorded-endpoint: ED50 (mg/kg)

CSC(=O)CC[S+](C)[O-] (stereo not shown) [CH3 SOCH2 CH2 COSCH3]; 1.8
C=CC(=O)SCC [CH2 =CHCOSC2 H5, S-ethyl acrylthioate]; 1.5
CCSCCC(=O)SCC [C2 H5 SCH2 CH2 COSC2 H5, S-Ethyl 3-ethylthiopropionothioate]; 3.75
CSCC(C)C(=O)SC (stereo not shown) [CH3 SCH2 CH(CH3)COSCH3]; 4.5

###

- experiment-notes: stomach ulcer (ulcerogenic action) in rats
- condition-info: rat, in vivo; rats, oral; read-out: Stomach ulcer ED50
recorded-endpoint: TD50 (µmol/kg)

COc1ccc2c(c1)c(CC(=O)O)c(C)n2C(=O)c1ccc(Cl)cc1; 11.1

###

- experiment-notes: in vivo
- condition-info: rat, im
recorded-endpoint: LD50 (µmol/kg)

CSCCC(=O)SC [A, S-methyl 3-methylthiopropionothioate]; 4590

###

- experiment-notes: comparison of the therapeutic range
- condition-info: rat, in vivo, Therapeutic range LD50 / ED50 kaolin oedema, rats, intramuscular
recorded-endpoint: selectivity ratio

CSCCC(=O)SC [A, S-methyl 3-methylthiopropionothioate]; 946

###

- experiment-notes: stomach ulcer (ulcerogenic action) in rats
- condition-info: rat, in vivo, po
recorded-endpoint: TD50 (µmol/kg)

CCCCC1C(=O)N(c2ccccc2)N(c2ccccc2)C1=O; 182
O=C(O)c1ccccc1Nc1cccc(C(F)(F)F)c1; 55.1
